Field: IC50. Provide a value for each of the compounds that follow.
- System Name: hVR1 (Homo sapiens)
- Construct: expressed in transfected cells; host or cells: CHO K1 cells (ECACC)
- Procedure Details: Functional investigation at the vanilloid receptor (VR1), FLIPR Ca2+ influx assay, Method II, hVR1
- Type: cell-based
- Run Conditions: suppression of capsaicin-induced Ca2+ influx
The answer consists of two parts: a number and, after it, its unit.

Batch: IC50 for all items listed.
1. CCCCCCCCCCCCCCCCOC(=O)NC(=O)NCC[N+](C)(C)C [compound 15]
2. CCCCCCCCCCCCCCCCOCC1(COC(=O)NC(=O)NCC[N+](C)(C)C)CCCO1 (stereo not shown) [compound 16]
3. CCCCCCCCCCCCCCCCOCC(COC(=O)NC(=O)NCC[N+](C)(C)C)OC (stereo not shown) [compound 14]
4. CCCCCCCCCCCCCCCCOC[C@@H]1CC[C@H](COC(=O)NC(=O)NCC[N+](C)(C)C)O1 (relative stereo) [compound 13]

Reply |
["3.45 µM", "1.7 µM", "2.4 µM", "1.1 µM"]

====

- System Name: rVR1 (Rattus norvegicus)
- Construct: expressed in transfected cells; host or cells: CHO K1 cells (ECACC)
- Procedure Details: Functional investigation at the vanilloid receptor (VR1), FLIPR Ca2+ influx assay, Method II, rVR1
- Format: cell-based
- Run Conditions: suppression of capsaicin-induced Ca2+ influx
Field: IC50. Provide a value for each of the compounds that follow.
Answers are plain numbers, in µM.

Below, each entry is followed by its recorded IC50 result.
{"Compound": "CCCCCCCCCCCCOC(=O)NC(=O)NCC[N+](C)(C)C", "Observed Property": "IC50", "Reported Value": 2.1}
{"Compound": "CCCCCCCCCCCCCCCCOC(=O)NC(=O)NCCC[N+](C)(C)C", "Observed Property": "IC50", "Reported Value": 1.27}
{"Compound": "CCCCCCCCCCCCCCCCOC(=O)NC(=O)NCC[N+](C)(C)C", "Observed Property": "IC50", "Reported Value": 2.95}
{"Compound": "CCCCCCCCCCCCCCCCOC[C@@H]1CC[C@H](COC(=O)NC(=O)NCC[N+](C)(C)C)O1 (relative stereo)", "Observed Property": "IC50", "Reported Value": 1.3}
{"Compound": "CCCCCCCCCCCCCCCCOCC1(COC(=O)NC(=O)NCC[N+](C)(C)C)CCCO1 (stereo not shown)", "Observed Property": "IC50", "Reported Value": 2.9}
{"Compound": "CCCCCCCCCCCCCCCCOC(=O)NC(=O)NCC[N+]1(C)CCCC1", "Observed Property": "IC50", "Reported Value": 1.23}

Ask | For the compound CCCCCCCCCCCCCCCCOCC(COC(=O)NC(=O)NCC[N+](C)(C)C)OC (stereo not shown) , give its reported IC50.
Reply | 1.15

====

- System Name: rVR1 (Rattus norvegicus, UniProt O35433)
- Construct: expressed in transfected cells; host or cells: CHO K1 cells (ECACC)
- Sequence (O35433 whole entry): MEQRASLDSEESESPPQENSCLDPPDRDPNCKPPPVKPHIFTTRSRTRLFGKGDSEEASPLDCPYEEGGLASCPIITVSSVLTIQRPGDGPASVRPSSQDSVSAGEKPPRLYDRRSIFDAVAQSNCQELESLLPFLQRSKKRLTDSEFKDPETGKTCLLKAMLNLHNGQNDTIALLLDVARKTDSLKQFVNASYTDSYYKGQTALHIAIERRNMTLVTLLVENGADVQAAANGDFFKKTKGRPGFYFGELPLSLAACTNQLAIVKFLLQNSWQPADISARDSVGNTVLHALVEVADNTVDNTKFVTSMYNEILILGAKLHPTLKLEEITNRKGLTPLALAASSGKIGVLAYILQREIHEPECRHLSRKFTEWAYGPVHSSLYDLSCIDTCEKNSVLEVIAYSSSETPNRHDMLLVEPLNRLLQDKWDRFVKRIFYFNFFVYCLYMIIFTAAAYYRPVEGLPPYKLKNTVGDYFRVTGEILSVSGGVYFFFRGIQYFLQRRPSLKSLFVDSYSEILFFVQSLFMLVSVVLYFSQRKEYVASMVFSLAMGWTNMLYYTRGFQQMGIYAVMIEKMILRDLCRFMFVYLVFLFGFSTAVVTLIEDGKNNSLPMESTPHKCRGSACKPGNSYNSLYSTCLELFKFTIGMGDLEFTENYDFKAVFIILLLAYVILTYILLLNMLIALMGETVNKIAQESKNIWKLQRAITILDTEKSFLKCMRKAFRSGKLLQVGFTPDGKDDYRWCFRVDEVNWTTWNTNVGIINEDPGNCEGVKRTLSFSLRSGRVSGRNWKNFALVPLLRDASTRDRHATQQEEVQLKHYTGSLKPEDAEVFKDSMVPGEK
- Procedure Details: Functional investigation at the vanilloid receptor (VR1), FLIPR Ca2+ influx assay, Method II, rVR1
- Type: cell-based
- Run Conditions: test substance 10 μM; inhibition of Ca2+ influx after 100 nM capsaicin, compared to maximum inhibition with 10 μM capsazepin
Observed Property: inhibition at 10 µM (%)
Answers are plain numbers, in %.

{"Molecule": "CCCCCCCCCCCCCCCCOCC(COC(=O)NC(=O)NCC[N+](C)(C)C)OC (stereo not shown)", "inhibition at 10 µM / %": 95.5}

Batch: inhibition at 10 µM for all items listed.
1. CCCCCCCCCCCCCCCCOC[C@@H]1CC[C@H](COC(=O)NC(=O)NCC[N+](C)(C)C)O1 (relative stereo)
2. CCCCCCCCCCCCOC(=O)NC(=O)NCC[N+](C)(C)C
3. CCCCCCCCCCCCCCCCOC(=O)NC(=O)NCC[N+]1(C)CCCC1
4. CCCCCCCCCCCCCCCCOC(=O)NC(=O)NCCC[N+](C)(C)C
5. CCCCCCCCCCCCCCCCOCC1(COC(=O)NC(=O)NCC[N+](C)(C)C)CCCO1 (stereo not shown)
6. CCCCCCCCCCCCCCCCOC(=O)NC(=O)NCC[N+](C)(C)C

Reply |
[92.1, 103, 87.1, 94.4, 99.3, 109]

====

- System Name: hVR1 (Homo sapiens, UniProt Q8NER1)
- Construct: expressed in transfected cells; host or cells: CHO K1 cells (ECACC)
- Sequence (Q8NER1 whole entry): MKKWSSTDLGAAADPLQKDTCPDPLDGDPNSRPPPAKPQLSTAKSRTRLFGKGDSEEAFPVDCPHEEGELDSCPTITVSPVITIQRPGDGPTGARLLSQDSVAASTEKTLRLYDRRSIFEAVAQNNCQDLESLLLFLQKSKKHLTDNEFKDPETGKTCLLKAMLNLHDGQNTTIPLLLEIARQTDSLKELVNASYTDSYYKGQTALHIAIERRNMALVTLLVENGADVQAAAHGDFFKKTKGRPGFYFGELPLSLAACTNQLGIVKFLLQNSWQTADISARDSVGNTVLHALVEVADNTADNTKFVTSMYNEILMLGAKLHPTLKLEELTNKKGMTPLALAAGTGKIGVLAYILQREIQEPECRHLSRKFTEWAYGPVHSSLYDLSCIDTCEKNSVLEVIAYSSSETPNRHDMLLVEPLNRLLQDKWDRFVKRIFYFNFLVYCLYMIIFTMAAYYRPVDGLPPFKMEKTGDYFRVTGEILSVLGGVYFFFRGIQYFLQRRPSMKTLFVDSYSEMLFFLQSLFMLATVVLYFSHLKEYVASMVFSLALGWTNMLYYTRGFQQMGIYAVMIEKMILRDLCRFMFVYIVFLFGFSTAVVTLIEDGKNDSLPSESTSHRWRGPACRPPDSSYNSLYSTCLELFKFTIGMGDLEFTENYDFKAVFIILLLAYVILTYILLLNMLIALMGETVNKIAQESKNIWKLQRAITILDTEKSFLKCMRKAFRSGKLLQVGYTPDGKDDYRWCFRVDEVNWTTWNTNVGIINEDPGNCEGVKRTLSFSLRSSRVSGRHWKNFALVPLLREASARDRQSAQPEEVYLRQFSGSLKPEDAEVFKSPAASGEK
- Procedure Details: Functional investigation at the vanilloid receptor (VR1), FLIPR Ca2+ influx assay, Method II, hVR1
- Assay type: cell-based
- Run Conditions: test substance 10 μM; CHO K1 cells transfected with VR1; inhibition of Ca2+ influx after 100 nM capsaicin, compared to maximum inhibition with 10 μM capsazepin
Field: inhibition at 10 µM. Provide a value for each of the molecules that follow.
One number for each entry, in %.

Below, each entry is followed by its recorded inhibition at 10 µM result.
{"Molecule": "CCCCCCCCCCCCCCCCOCC(COC(=O)NC(=O)NCC[N+](C)(C)C)OC (stereo not shown)", "System Name": "hVR1 (Homo sapiens, UniProt Q8NER1)", "Value Unit": "%", "Reported Value": 93.1}
{"Molecule": "CCCCCCCCCCCCCCCCOC(=O)NC(=O)NCC[N+](C)(C)C", "System Name": "hVR1 (Homo sapiens, UniProt Q8NER1)", "Value Unit": "%", "Reported Value": 101}
{"Molecule": "CCCCCCCCCCCCCCCCOC(=O)NC(=O)NCC[N+]1(C)CCCC1", "System Name": "hVR1 (Homo sapiens, UniProt Q8NER1)", "Value Unit": "%", "Reported Value": 88.9}
{"Molecule": "CCCCCCCCCCCCOC(=O)NC(=O)NCC[N+](C)(C)C", "System Name": "hVR1 (Homo sapiens, UniProt Q8NER1)", "Value Unit": "%", "Reported Value": 95.4}
{"Molecule": "CCCCCCCCCCCCCCCCOCC1(COC(=O)NC(=O)NCC[N+](C)(C)C)CCCO1 (stereo not shown)", "System Name": "hVR1 (Homo sapiens, UniProt Q8NER1)", "Value Unit": "%", "Reported Value": 68.6}

Batch: inhibition at 10 µM for all items listed.
1. CCCCCCCCCCCCCCCCOC[C@@H]1CC[C@H](COC(=O)NC(=O)NCC[N+](C)(C)C)O1 (relative stereo)
2. CCCCCCCCCCCCCCCCOC(=O)NC(=O)NCCC[N+](C)(C)C

Reply |
80.8
56.9

====

- System Name: rVR1 (Rattus norvegicus)
- Construct: expressed in transfected cells; host or cells: CHO K1 cells (ECACC)
- Procedure Details: Functional investigation at the vanilloid receptor (VR1), FLIPR Ca2+ influx assay, Method II, rVR1
- Assay type: cell-based
- Run Conditions: test substance 10 μM; % activation relative to the Ca2+ signal after adding 10 μM capsaicin
Field: rVR1 10 μM Stimulation. Provide a value for each of the compounds that follow.
Answers are plain numbers, in %.

{"Compound": "CCCCCCCCCCCCCCCCOC(=O)NC(=O)NCC[N+](C)(C)C [compound 15]", "Value Unit": "%", "Reported Value": "−1.01"}
{"Compound": "CCCCCCCCCCCCCCCCOC(=O)NC(=O)NCCC[N+](C)(C)C [compound 3]", "Value Unit": "%", "Reported Value": "−0.73"}
{"Compound": "CCCCCCCCCCCCOC(=O)NC(=O)NCC[N+](C)(C)C [compound 1]", "Value Unit": "%", "Reported Value": 0.55}
{"Compound": "CCCCCCCCCCCCCCCCOCC(COC(=O)NC(=O)NCC[N+](C)(C)C)OC (stereo not shown) [compound 14]", "Value Unit": "%", "Reported Value": 0.09}
{"Compound": "CCCCCCCCCCCCCCCCOCC1(COC(=O)NC(=O)NCC[N+](C)(C)C)CCCO1 (stereo not shown) [compound 16]", "Value Unit": "%", "Reported Value": 0.58}

Batch: rVR1 10 μM Stimulation for all items listed.
1. CCCCCCCCCCCCCCCCOC[C@@H]1CC[C@H](COC(=O)NC(=O)NCC[N+](C)(C)C)O1 (relative stereo) [compound 13]
2. CCCCCCCCCCCCCCCCOC(=O)NC(=O)NCC[N+]1(C)CCCC1 [compound 2]

Reply |
0.36
−0.02

====

- System Name: hVR1 (Homo sapiens)
- Construct: expressed in transfected cells; host or cells: CHO K1 cells (ECACC)
- Procedure Details: Functional investigation at the vanilloid receptor (VR1), FLIPR Ca2+ influx assay, Method II, hVR1
- Assay type: cell-based
- Run Conditions: suppression of capsaicin-induced Ca2+ influx
Observed Property: IC50 (µM)
One number for each entry, in µM.

Below, each entry is followed by its recorded IC50 result.
{"Line Notation": "CCCCCCCCCCCCCCCCOC(=O)NC(=O)NCC[N+]1(C)CCCC1", "Reported Value": 0.92}
{"Line Notation": "CCCCCCCCCCCCCCCCOC(=O)NC(=O)NCCC[N+](C)(C)C", "Reported Value": 4.27}

Ask | For the compound CCCCCCCCCCCCOC(=O)NC(=O)NCC[N+](C)(C)C , give its reported IC50.
Reply | 2.43
